Would you mind telling me the reported log10 of kon of each entry?
Biological target: T1, human C1s (human, UniProt P09871 16-688)
T1 construct: Analyte in the Biacore assays; also called hC1s; serum-derived human C1s (CompTech)
T1 sequence: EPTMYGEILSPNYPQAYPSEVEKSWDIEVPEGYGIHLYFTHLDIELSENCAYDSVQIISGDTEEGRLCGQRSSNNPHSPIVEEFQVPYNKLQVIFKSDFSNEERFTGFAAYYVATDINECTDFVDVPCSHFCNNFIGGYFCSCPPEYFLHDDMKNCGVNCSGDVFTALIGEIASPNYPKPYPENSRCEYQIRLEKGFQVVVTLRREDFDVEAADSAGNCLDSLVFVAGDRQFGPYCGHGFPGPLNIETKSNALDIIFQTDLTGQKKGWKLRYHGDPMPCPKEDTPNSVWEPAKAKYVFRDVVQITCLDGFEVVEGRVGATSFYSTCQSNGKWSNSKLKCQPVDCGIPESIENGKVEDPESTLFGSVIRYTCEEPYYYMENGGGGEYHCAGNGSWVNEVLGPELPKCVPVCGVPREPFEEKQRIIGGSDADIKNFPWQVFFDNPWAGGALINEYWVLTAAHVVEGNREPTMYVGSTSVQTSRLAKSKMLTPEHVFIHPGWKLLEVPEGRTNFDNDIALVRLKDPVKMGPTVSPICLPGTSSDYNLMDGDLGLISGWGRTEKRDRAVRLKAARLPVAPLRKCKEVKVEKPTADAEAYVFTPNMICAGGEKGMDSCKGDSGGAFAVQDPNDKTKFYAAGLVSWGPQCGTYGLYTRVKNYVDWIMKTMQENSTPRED
Assay: SPR (Biacore T200, 37C), Ab captured on protein A/G; pH 5.8, 3 uM Ca
# values: log10(kon), units M⁻¹ s⁻¹

stdin: Suppose we examine the binder C1_IPN92H0165-SG4GK/IPN93L0024-SK1 (antibody, human IgG4 S228P, kappa, name in Kabat numbering, V domains shown, Substitutions from IPN009VH2, Kabat numbering; also called IPN92H0165/IPN93L0024) VH: EVMLVESGGGLVKPGGSLRLSCAASGFTFSNYAMSWVRQAPGKGLEWVATISSGGSHTYYDDSVKGRFTISRDNSKDTLYLQMNSLRAEDTALYYCARLFTGHAMDYWGQGTLVTVSS VL: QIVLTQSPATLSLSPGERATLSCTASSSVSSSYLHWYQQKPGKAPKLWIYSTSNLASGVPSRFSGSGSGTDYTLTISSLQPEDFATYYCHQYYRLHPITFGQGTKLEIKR ; what log10 of kon value has been reported?
stdout: 7.94

stdin: Suppose we examine the binder C1_IPN92H0193-SG4GK/IPN93L0024-SK1 (antibody, human IgG4 S228P, kappa, name in Kabat numbering, V domains shown, Substitutions from IPN009VH2, Kabat numbering; also called IPN92H0193/IPN93L0024) VH: EVMLVESGGGLVKPGGSLRLSCAASGFTFSNYAMSWVRQAPGKGLEWVATISSGGSHTYYLDSVKDRFTISRDNSKDTLYLQMNSLRAEDTALYYCARLFTGHAMDYWGQGTLVTVSS VL: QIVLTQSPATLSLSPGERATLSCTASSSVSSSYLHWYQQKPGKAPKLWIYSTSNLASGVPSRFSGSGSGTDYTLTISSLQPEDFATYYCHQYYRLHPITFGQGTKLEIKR ; what log10 of kon value has been reported?
stdout: 7.33

stdin: Suppose we examine the binder C1_IPN92H0288-SG4GK/IPN93L0212-SK1 (antibody, human IgG4 S228P, kappa, name in Kabat numbering, V domains shown, VL substitutions from IPN009VK3, Kabat numbering; also called IPN92H0288/IPN93L0212) VH: EVMLVESGGGLVKPGGSLRLSCAASGFTFSNYAMSWVRQAPGKGLEWVATISSGGSHTYELDSVDGRFTISRDNSKDTLYLQMNSLRAEDTALYYCARLFTKHAMDYWGQGTLVTVSS VL: QIVLTQSPATLSLSPGERATLSCTASSEVSESRLHWYQQKPGKAPKLWIYSTSNLASGVPSRFSGSGSGTDYTLTISSLQPEDFATYYCHQYYRLHPITFGQGTKLEIKR ; what log10 of kon value has been reported?
stdout: 5.89

stdin: Suppose we examine the binder C1_IPN92H0156-SG4GK/IPN93L0024-SK1 (antibody, human IgG4 S228P, kappa, name in Kabat numbering, V domains shown, Substitutions from IPN009VH2, Kabat numbering; also called IPN92H0156/IPN93L0024) VH: EVMLVESGGGLVKPGGSLRLSCAASGFTFSNYAMSWVRQAPGKGLEWVATISSGGSHTKYLDSVKGRFTISRDNSKDTLYLQMNSLRAEDTALYYCARLFTGHAMDYWGQGTLVTVSS VL: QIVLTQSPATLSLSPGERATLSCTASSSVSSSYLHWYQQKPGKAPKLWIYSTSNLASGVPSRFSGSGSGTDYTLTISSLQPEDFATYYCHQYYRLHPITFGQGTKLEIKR ; what log10 of kon value has been reported?
stdout: 5.81

stdin: Suppose we examine the binder C1_IPN92H0091-SG4GK/IPN93L0024-SK1 (antibody, human IgG4 S228P, kappa, name in Kabat numbering, V domains shown, Substitutions from IPN009VH2, Kabat numbering; also called IPN92H0091/IPN93L0024) VH: EVMLVESGGGLVKPGGSLRLSCAASGFTFSNYAKSWVRQAPGKGLEWVATISSGGSHTYYLDSVKGRFTISRDNSKDTLYLQMNSLRAEDTALYYCARLFTGHAMDYWGQGTLVTVSS VL: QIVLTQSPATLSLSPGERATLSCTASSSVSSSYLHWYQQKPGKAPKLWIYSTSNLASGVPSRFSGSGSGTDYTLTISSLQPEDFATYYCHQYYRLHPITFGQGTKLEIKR ; what log10 of kon value has been reported?
stdout: 8.89

stdin: Suppose we examine the binder C1_IPN92H0080-SG4GK/IPN93L0024-SK1 (antibody, human IgG4 S228P, kappa, name in Kabat numbering, V domains shown, Substitutions from IPN009VH2, Kabat numbering; also called IPN92H0080/IPN93L0024) VH: EVMLVESGGGLVKPGGSLRLSCAASGFTFSNRAMSWVRQAPGKGLEWVATISSGGSHTYYLDSVKGRFTISRDNSKDTLYLQMNSLRAEDTALYYCARLFTGHAMDYWGQGTLVTVSS VL: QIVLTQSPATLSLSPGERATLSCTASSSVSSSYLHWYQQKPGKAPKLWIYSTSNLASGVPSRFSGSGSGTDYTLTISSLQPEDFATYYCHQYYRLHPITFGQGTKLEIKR ; what log10 of kon value has been reported?
stdout: 5.86

Data origin: patent US20210032365A1
